Measured Population Membrane Permeable-Phenotype (%), listed per entry for reference.
- Tested on: U2OS
- method_notes: Multiplex assay against U2OS
- Assay type: toxicity, cell-based
- assay_conditions: human, 12 h, 10 µM, compound concentration 10 uM, replicate 1
The reply should contain only the number, in %.

- COc1cc2nc(N3CCN(C(=O)COc4c(OC)cccc4C(C)C)CC3)nc(N)c2cc1OC.Cl.Cl: 60
- COCCCN1CCC(NC(=O)c2cc(Cl)c(N)c3c2OCC3)CC1 [PRUCALOPRIDE]: 4
- Nc1nc(CC(=O)Nc2ccc(CCNC[C@H](O)c3ccccc3)cc2)cs1: 6
- CN(C)C(=O)Cn1cc(-c2ccc(-c3nnc4ccccn34)cc2)cn1: 4
- OCCCNc1cc(-c2ccnc(Nc3cccc(Cl)c3)n2)ccn1: 46
- O=C(O)CCC/C=C\CC1C(O)CC(O)C1/C=C/C(O)COc1cccc(Cl)c1 (centres undefined): 8

Population Membrane Permeable-Phenotype (%) in this record for O=C(NCCNCC(O)COc1ccc(O)cc1)N1CCOCC1.O=C(NCCNCC(O)COc1ccc(O)cc1)N1CCOCC1.O=C(O)/C=C/C(=O)O (centres undefined) [XAMOTEROL FUMARATE] : 6

Memo: C=CCN1C[C@H](C(=O)N(CCCN(C)C)C(=O)NCC)C[C@@H]2c3cccc4[nH]cc(c34)C[C@H]21 , reported Population Membrane Permeable-Phenotype (%): 15

Documented Population Membrane Permeable-Phenotype (%) of CN1CCN(c2ccc(Nc3c4ccccc4nc4ccccc34)cc2)CC1.Cl.Cl.O : 65

----------
- Tested on: HEK-293T
- method_notes: Multiplex assay against HEK293T
- Type: toxicity, cell-based
- assay_conditions: human, 24 h, 10 µM, compound concentration 10 uM, replicate 2
Returns the class for an entry based on its Population Mitochondria Different-Phenotype (%). Class ranges: L (below 50%), M (50% to below 80%), H (80% or more)

**Query** Band for the recorded Population Mitochondria Different-Phenotype (%) of COc1cc2nc(N3CCN(C(=O)c4ccco4)CC3)nc(N)c2cc1OC.Cl [PRAZOSIN HYDROCHLORIDE] ?
**Result** L

**Query** Where would Nc1nc(-c2ccco2)c2cnn(Cc3ccccc3F)c2n1 land among the classes by reported Population Mitochondria Different-Phenotype (%)?
**Result** M

**Query** Classify this compound: COc1cc(Nc2ncc3c(n2)-c2ccc(Cl)cc2C(c2c(F)cccc2OC)=NC3)ccc1C(=O)O
**Result** H

**Query** # bin lookup: classify COc1cc(C(=O)N2CC[C@@H](O)[C@@H](N)C2)cc2nc(-c3cc4ccccc4n3CC3CC3)n(C)c12.Cl by its Population Mitochondria Different-Phenotype (%)
**Result** H

----------
- Tested on: Fibroblast
- method_notes: Multiplex assay against human fibroblast
- Type: toxicity, cell-based
- assay_conditions: 24 h, 1 µM, compound concentration 1 uM, replicate 1
Non-standard residues stand in square brackets, D forms with d. Residues, ends and D or L forms follow the SMILES beside them.
# Population Hoechst High Intensity Objects (%) listing for each entry below
Use % as the unit, but write only the number.

The following molecules have reported results that may help.
• Cn1cc(C(=O)OCC2CCN(CCNS(C)(=O)=O)CC2)c2ccccc21 = 5
• O=C(O)CCC/C=C\CC1C(O)CC(O)C1/C=C/C(O)COc1cccc(Cl)c1 (stereo not drawn) = 0
• S=C(NCCCc1c[nH]cn1)NCCCN(Cc1ccc(Cl)c(Cl)c1)c1ccc(Br)cn1 = 4
• CC(C)C[C@@H]1NC(=O)[C@@H](C(C)C)NC(=O)[C@@H]2CCCN2C(=O)[C@@H](CC(=O)O)NC(=O)[C@@H](Cc2c[nH]c3ccccc23)NC1=O [BQ-123] (cyclo(L[dW][dD]P[dV])) = 1
• Cc1sc2c(c1C)C(c1ccc(Cl)cc1)=N[C@H](CC(=O)OC(C)(C)C)c1nnc(C)n1-2 = 2

Measured Population Hoechst High Intensity Objects (%), CC(C)(C)c1ccc(CSc2cnn(C(C)(C)C)c(=O)c2Cl)cc1 : 0

Nc1nc(-c2ccco2)c2cnn(Cc3ccccc3F)c2n1 has a reported Population Hoechst High Intensity Objects (%) of 0

// field: Population Hoechst High Intensity Objects (%); key: COc1ccc2c(c1OCc1ccccc1)C[C@@H](C(=O)O)N(C(=O)C(c1ccccc1)c1ccccc1)C2 ; value = 6

Note to self: Population Hoechst High Intensity Objects (%) recorded for O=C(Nc1cc(-c2ccccc2)nn1-c1ccccc1F)c1ccc([N+](=O)[O-])cc1 was 2

----------
- System: HEK-293T
- method_notes: Multiplex assay against HEK293T
- Type: toxicity, cell-based
- assay_conditions: human, 24 h, 10 µM, compound concentration 10 uM, replicate 2
observable: Total Cell Count
Hey, just send me the number, nothing else.

- Cc1sc2c(c1C)C(c1ccc(Cl)cc1)=N[C@H](CC(=O)OC(C)(C)C)c1nnc(C)n1-2: 378
- OCCCNc1cc(-c2ccnc(Nc3cccc(Cl)c3)n2)ccn1: 207
- Nc1nc(CC(=O)Nc2ccc(CCNC[C@H](O)c3ccccc3)cc2)cs1: 524

Quick note, Total Cell Count for CN1C[C@H](C(=O)N[C@]2(C)O[C@@]3(O)[C@@H]4CCCN4C(=O)[C@H](Cc4ccccc4)N3C2=O)C[C@@H]2c3cccc4[nH]cc(c34)C[C@H]21.CS(=O)(=O)O [DIHYDROERGOTAMINE MESYLATE] landed at 567

----------
- Tested on: U2OS
- method_notes: Multiplex assay against U2OS
- Type: toxicity, cell-based
- assay_conditions: human, 48 h, 10 µM, compound concentration 10 uM, replicate 2
Each record is given satisfied if its reported Population Hoechst High Intensity Objects (%) is strictly below 3%. Records at or above 3% are given not satisfied.

**Query** Consider the compound Cc1cc(=O)n(C)c2cc(N3C(=O)CC[C@H](NS(=O)(=O)CC(C)C)[C@H]3c3ccc(Cl)cc3)ccc12 . Is its Population Hoechst High Intensity Objects (%) strictly less than 3%?
**Result** not satisfied

**Query** State whether 3% exceeds Population Hoechst High Intensity Objects (%) recorded for Cc1ccc(OCC(O)C(C)NC(C)C)c2c1CCC2.Cl (stereo not drawn) .
**Result** satisfied

----------
Here the recorded Population Fragmented Nuclei (%) is given for each entry.
- Test system: Fibroblast
- method_notes: Multiplex assay against human fibroblast
- Assay type: toxicity, cell-based
- assay_conditions: 12 h, 10 µM, compound concentration 10 uM, replicate 2
Non-standard residues stand in square brackets, D forms with d. Residues, ends and D or L forms follow the SMILES beside them.
Quick reminder: number only, in %, skip the unit.

Below, 5 compounds whose answers are already recorded.
* COc1cc2nc(N3CCN(C(=O)c4ccco4)CC3)nc(N)c2cc1OC.Cl [PRAZOSIN HYDROCHLORIDE] | 35
* CN1CCN2c3ccccc3Cc3ccccc3C2C1.Cl (centres undefined) [MIANSERIN HYDROCHLORIDE] | 24
* O=C(NCCNCC(O)COc1ccc(O)cc1)N1CCOCC1.O=C(NCCNCC(O)COc1ccc(O)cc1)N1CCOCC1.O=C(O)/C=C/C(=O)O (centres undefined) [XAMOTEROL FUMARATE] | 30
* Cc1cc(=O)n(C)c2cc(N3C(=O)CC[C@H](NS(=O)(=O)CC(C)C)[C@H]3c3ccc(Cl)cc3)ccc12 | 26
* COc1cc(Nc2ncc3c(n2)-c2ccc(Cl)cc2C(c2c(F)cccc2OC)=NC3)ccc1C(=O)O | 35

# compound OCCCNc1cc(-c2ccnc(Nc3cccc(Cl)c3)n2)ccn1 ; its Population Fragmented Nuclei (%) = 65

What the record says about CSc1nc(NC2CCCC2)c([N+](=O)[O-])c(NC2CCCC2)n1 : Population Fragmented Nuclei (%) is 25

For reference, reported Population Fragmented Nuclei (%) for Cc1cc(-c2ccc3c(c2)CC[C@H]3N2CC3(CCN(C(=O)Cc4cn5cc(C)sc5n4)CC3)C2)ncn1 stands at 20

# compound Nc1nc(-c2ccco2)c2cnn(Cc3ccccc3F)c2n1 ; its Population Fragmented Nuclei (%) = 39

response.value for Cc1c(Cc2ccc3ccccc3n2)c2cc(F)ccc2n1CC(=O)O (field: Population Fragmented Nuclei (%)) = 26

Entry under test: CN1CCC(C(=O)c2cccc(NC(=O)c3c(F)cc(F)cc3F)n2)CC1 . Its Population Fragmented Nuclei (%) was 23

Entry under test: CC(C)C[C@@H]1NC(=O)[C@@H](C(C)C)NC(=O)[C@@H]2CCCN2C(=O)[C@@H](CC(=O)O)NC(=O)[C@@H](Cc2c[nH]c3ccccc23)NC1=O [BQ-123] (cyclo(L[dW][dD]P[dV])) . Its Population Fragmented Nuclei (%) was 30

Lookup result for Nc1nc(CC(=O)Nc2ccc(CCNC[C@H](O)c3ccccc3)cc2)cs1 ; measured Population Fragmented Nuclei (%): 31

----------
- Tested on: U2OS
- method_notes: Multiplex assay against U2OS
- Format: toxicity, cell-based
- assay_conditions: human, 12 h, 10 µM, compound concentration 10 uM, replicate 1
Non-standard residues stand in square brackets, D forms with d. Residues, ends and D or L forms follow the SMILES beside them.
observable: Population Tubulin-Different-Phenotype (%)
Could you give me the number in %? Just the number is fine.

Take a look at these entries with their results.
- CC(C)C[C@@H]1NC(=O)[C@@H](C(C)C)NC(=O)[C@@H]2CCCN2C(=O)[C@@H](CC(=O)O)NC(=O)[C@@H](Cc2c[nH]c3ccccc23)NC1=O [BQ-123] (cyclo(L[dW][dD]P[dV])): 3
- O=C(NCCNCC(O)COc1ccc(O)cc1)N1CCOCC1.O=C(NCCNCC(O)COc1ccc(O)cc1)N1CCOCC1.O=C(O)/C=C/C(=O)O (stereo unspecified) [XAMOTEROL FUMARATE]: 4
- S=C(NCCCc1c[nH]cn1)NCCCN(Cc1ccc(Cl)c(Cl)c1)c1ccc(Br)cn1: 83
- COc1cc(C(=O)N2CC[C@@H](O)[C@@H](N)C2)cc2nc(-c3cc4ccccc4n3CC3CC3)n(C)c12.Cl: 96
- COc1cc2nc(N3CCN(C(=O)COc4c(OC)cccc4C(C)C)CC3)nc(N)c2cc1OC.Cl.Cl: 75

Lookup result for Cc1cc(O)c(-c2ccc([C@@H](C)CN(C)C)cc2)c2c1[nH]c(=O)c1sccc12 ; measured Population Tubulin-Different-Phenotype (%): 72

// sample Cc1cc(-c2ccc3c(c2)CC[C@H]3N2CC3(CCN(C(=O)Cc4cn5cc(C)sc5n4)CC3)C2)ncn1 [PF-5190457] , its Population Tubulin-Different-Phenotype (%) was 5
